Numbers sourced from patent US12371454B2.

Reported IC50 is given for each of the following compounds.
Target: Kras and SOS1 (biotin-tagged human Kras loaded with GDP, His-tagged human SOS1) (Homo sapiens, UniProt P01116, G12D)
Construct: made in house; host or cells: E. coli (stated for Kras only)
Sequence (P01116 1-188 isoform P01116-2 G12D): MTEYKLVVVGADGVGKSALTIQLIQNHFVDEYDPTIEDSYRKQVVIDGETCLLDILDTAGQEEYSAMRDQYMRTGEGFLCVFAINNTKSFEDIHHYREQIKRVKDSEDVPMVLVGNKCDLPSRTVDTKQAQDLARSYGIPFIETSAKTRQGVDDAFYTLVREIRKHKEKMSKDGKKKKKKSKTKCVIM
Assay: Protein-protein interaction inhibition between Kras and SOS1 (KrasGl2D-SOS PPI) using AlphaScreen
Assay type: binding
Details: AlphaScreen; biotin-tagged human Kras loaded with GDP, His-tagged human SOS1; read-out: KRAS G12D-SOS PPI IC50
Protocol: Protein-Protein Interaction Inhibition Between Kras and SOS1 (KrasGl2D-SOS PPI) Using AlphaScreen Protein-protein interaction inhibition (PPI) between Kras and SOS1 was measured by energy transfer from nickel-conjugated donor beads to streptavidin-conjugated acceptor beads using biotin-tagged human Kras expressed in E. coli and loaded with GDP after purification and His-tagged human SOS1 enzyme. […]
Positions of bridges follow the written chain, without caps; N, C: chain ends. Non-standard residues stand in square brackets, D forms with d. Residues, ends and D or L forms follow the SMILES beside them. *: point of attachment. hPhe(3-Cl-4-CF3) = N[C@@H](CCc1ccc(C(F)(F)F)c(Cl)c1)C(=O)O; NMePhe(4-CF3) = CN[C@@H](Cc1ccc(C(F)(F)F)cc1)C(=O)O; hPhe(4-CF3) = N[C@@H](CCc1ccc(C(F)(F)F)cc1)C(=O)O; NMePhe(3-Cl) = CN[C@@H](Cc1cccc(Cl)c1)C(=O)O; NMePhe(4-Cl) = CN[C@@H](Cc1ccc(Cl)cc1)C(=O)O; NMeGly(cPent) = CN[C@H](C(=O)O)C1CCCC1; Phe(3-F) = N[C@@H](Cc1cccc(F)c1)C(=O)O; Phe(3-I) = N[C@@H](Cc1cccc(I)c1)C(=O)O; NMeCha = CN[C@@H](CC1CCCCC1)C(=O)O; NMeChg = CN[C@H](C(=O)O)C1CCCCC1; NMeF = CN[C@@H](Cc1ccccc1)C(=O)O; NMeD = CN[C@@H](CC(=O)O)C(=O)O; NMeL = CN[C@@H](CC(C)C)C(=O)O; NMeV = CN[C@H](C(=O)O)C(C)C; Morpholide = C1CN(*)CCO1; NMeA = CN[C@@H](C)C(=O)O; NMeAib = CNC(C)(C)C(=O)O; Nle = CCCC[C@H](N)C(=O)O; Pyrrolidide = C1CCN(*)C1; Ac5c = NC1(C(=O)O)CCCC1; Aze = O=C(O)[C@@H]1CCN1; Sar = CNCC(=O)O
Record the value in µM, omitting the unit from your answer.

Example entries and their recorded answers appear below.
CCCC[C@@H]1NC(=O)[C@H](Cc2cccc(I)c2)NC(=O)CN(C)C(=O)[C@H](Cc2ccc(Cl)cc2)N(C)C(=O)CN(C)C(=O)CN(C)C(=O)[C@H]([C@@H](C)CC)NC(=O)[C@H](CC(C)C)N(C)C(=O)C[C@@H](C(=O)N2CCCC2)N(C)C(=O)[C@H](Cc2ccccc2)NC(=O)C(C)(C)N(C)C1=O [Compound 1409] ([NMeL]I[Sar][Sar][NMePhe(4-Cl)][Sar][Phe(3-I)][Nle][NMeAib]F[NMeD]-Pyrrolidide; lactam N-11); 0.17
CC[C@H](C)[C@@H]1NC(=O)[C@H](CC(C)C)N(C)C(=O)C[C@@H](C(=O)N(C)C)N(C)C(=O)[C@H](C2CCCC2)N(C)C(=O)C2(CCCC2)NC(=O)[C@H](Cc2cccc(Cl)c2)N(C)C(=O)[C@H](CCc2ccc(C(F)(F)F)c(Cl)c2)NC(=O)CN(C)C(=O)[C@H](CC2CCCCC2)N(C)C(=O)[C@@H]2CCN2C(=O)[C@H](C)N(C)C1=O [Compound 179] ([NMeL]I[NMeA][Aze][NMeCha][Sar][hPhe(3-Cl-4-CF3)][NMePhe(3-Cl)][Ac5c][NMeGly(cPent)][NMeD]-NMe2; lactam N-11); 0.042
CC[C@H](C)[C@@H]1NC(=O)[C@H](C)N(C)C(=O)C[C@@H](C(=O)N2CCCC2)NC(=O)[C@H](C(C)C)N(C)C(=O)[C@H](Cc2ccccc2)N(C)C(=O)[C@H](Cc2ccccc2)NC(=O)[C@H](Cc2cccc(F)c2)NC(=O)CN(C)C(=O)[C@H](Cc2ccc(Cl)cc2)N(C)C(=O)CN(C)C(=O)CN(C)C1=O [Compound 184] ([NMeA]I[Sar][Sar][NMePhe(4-Cl)][Sar][Phe(3-F)]F[NMeF][NMeV]D-Pyrrolidide; lactam N-11); 0.32
CC[C@H](C)[C@@H]1NC(=O)[C@H](C)N(C)C(=O)C[C@@H](C(=O)N2CCCC2)NC(=O)[C@H](CC(C)C)N(C)C(=O)[C@H](Cc2ccccc2)N(C)C(=O)[C@H](CC(C)C)NC(=O)[C@H](CCc2ccc(C(F)(F)F)cc2)NC(=O)CN(C)C(=O)[C@H](Cc2ccc(Cl)cc2)N(C)C(=O)CN(C)C(=O)CN(C)C1=O [Compound 50] ([NMeA]I[Sar][Sar][NMePhe(4-Cl)][Sar][hPhe(4-CF3)]L[NMeF][NMeL]D-Pyrrolidide; lactam N-11); 0.028

Ask: What IC50 value was documented for this compound, CC[C@H](C)[C@@H]1NC(=O)[C@H](CC(C)C)N(C)C(=O)C[C@@H](C(=O)N2CCOCC2)N(C)C(=O)[C@H](C2CCCCC2)N(C)C(=O)C2(CCCC2)NC(=O)[C@@H]2CCCN2C(=O)[C@H](CCc2ccc(C(F)(F)F)c(Cl)c2)NC(=O)CN(C)C(=O)[C@H](Cc2ccc(C(F)(F)F)cc2)N(C)C(=O)CN(C)C(=O)CN(C)C1=O [Compound 1948] ([NMeL]I[Sar][Sar][NMePhe(4-CF3)][Sar][hPhe(3-Cl-4-CF3)]P[Ac5c][NMeChg][NMeD]-Morpholide; lactam N-11) ?
Result: 0.00054
